system under test: RET (G810S/M918T) (Homo sapiens, UniProt P07949, G810S/M918T)
Construct: purchased Reaction Biology Corp
Sequence (P07949 29-1114 G810S/M918T): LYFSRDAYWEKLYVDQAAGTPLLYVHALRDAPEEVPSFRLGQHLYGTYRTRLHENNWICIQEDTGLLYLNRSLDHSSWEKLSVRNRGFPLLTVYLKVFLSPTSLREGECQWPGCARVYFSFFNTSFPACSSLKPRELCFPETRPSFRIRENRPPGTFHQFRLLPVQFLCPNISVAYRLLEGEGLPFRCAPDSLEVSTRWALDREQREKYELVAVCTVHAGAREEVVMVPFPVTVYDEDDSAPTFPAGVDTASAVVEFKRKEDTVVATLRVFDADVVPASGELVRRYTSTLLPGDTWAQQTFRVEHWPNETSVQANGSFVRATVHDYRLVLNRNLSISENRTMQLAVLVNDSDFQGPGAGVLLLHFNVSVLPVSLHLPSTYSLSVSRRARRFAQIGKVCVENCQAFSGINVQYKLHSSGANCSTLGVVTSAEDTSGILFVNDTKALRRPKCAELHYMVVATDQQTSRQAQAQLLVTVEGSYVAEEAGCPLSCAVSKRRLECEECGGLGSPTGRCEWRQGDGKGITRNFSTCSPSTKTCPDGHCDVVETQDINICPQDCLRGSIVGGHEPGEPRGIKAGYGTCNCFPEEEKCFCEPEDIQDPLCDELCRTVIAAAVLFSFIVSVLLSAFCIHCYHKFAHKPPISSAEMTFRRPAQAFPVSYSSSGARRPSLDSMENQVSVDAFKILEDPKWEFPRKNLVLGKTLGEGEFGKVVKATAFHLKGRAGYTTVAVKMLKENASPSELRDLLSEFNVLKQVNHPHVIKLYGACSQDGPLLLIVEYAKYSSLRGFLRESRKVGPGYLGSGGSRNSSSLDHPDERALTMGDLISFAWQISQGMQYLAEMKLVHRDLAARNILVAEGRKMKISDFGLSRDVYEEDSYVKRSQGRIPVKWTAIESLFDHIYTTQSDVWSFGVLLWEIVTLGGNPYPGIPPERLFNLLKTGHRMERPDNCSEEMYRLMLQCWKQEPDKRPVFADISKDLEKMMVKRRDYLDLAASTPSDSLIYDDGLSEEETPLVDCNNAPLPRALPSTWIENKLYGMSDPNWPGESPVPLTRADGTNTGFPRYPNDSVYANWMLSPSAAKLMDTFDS
assay name: Kinase panel inhibition, radiolabeled [γ-33P] ATP (Reaction Biology Corp)
Type: biochemical
reported conditions: compound at 10 uM; ATP 1 µM; Data 1; read-out: % Enzyme Activity (relative to DMSO controls) RET (G810S/M918T) Data 1
quantity name: remaining activity at 10 µM (%)

[I] CCCNc1cc(-c2ccc(N3CC(Oc4cccc(F)c4)C3)nc2)c2nccnc2c1 [Example 4]
[II] CC(C)Nc1cc(-c2ccc(N3CC(Oc4cccc(F)c4)C3)nc2)c2nccnc2c1 [Example 5]
**Q:** Which value of remaining activity at 10 µM is smaller, the one for I or the one for II ? In your reply, give the label of the chosen option.
**A:** I

----------
Listed below: Cell Proliferation (% of control) values for each entry.
System: A-549
assay name: Cell proliferation inhibition, Cell Counting Kit-8, non-small cell lung cancer cell line
Type: cell-based
reported conditions: A-549 cell line; 72 hours incubation; test concentration not given
Answer format: numeric, % implied, no suffix.

Previously resolved entries follow.
molecular_string=CCN1CCN(c2ccc(-c3cc(N)cc4nccnc34)cn2)CC1 result_units=% measured=64.90
molecular_string=O=C(Nc1cc(-c2ccc(N3CC(Oc4cccc(F)c4)C3)nc2)c2nccnc2c1)c1ccccn1 result_units=% measured=18.67
molecular_string=Nc1cc(-c2ccc(N3CC[C@H](NC(=O)c4ccccc4F)C3)nc2)c2nccnc2c1 result_units=% measured=32.59
molecular_string=Nc1cc(-c2cnc(N3CC[C@H](NC(=O)c4ccccc4F)C3)nc2)c2nccnc2c1 result_units=% measured=42.94
molecular_string=CCNc1cc(C#CCN2CCOCC2)c2nccnc2c1 result_units=% measured=51.88

Known value: A-549 Cell Proliferation (% of control) of the molecule CN1CCN(c2ccc(-c3cc(N)cc4nccnc34)cn2)CC1 equals 81.61

Cell Proliferation (% of control) for A-549 with input CCN(CC)c1cc(-c2ccc(N3CC(Oc4cccc(F)c4)C3)nc2)c2nccnc2c1 equals 94.81

Measured Cell Proliferation (% of control) (A-549), entry O=C(Nc1cc(-c2ccc(N3CC[C@H](NC(=O)c4ccccc4F)C3)nc2)c2nccnc2c1)c1ccco1 : 48.96

----------
system under test: RET (G810S/M918T) (Homo sapiens, UniProt P07949, G810S/M918T)
Construct: purchased Reaction Biology Corp
assay name: Kinase panel inhibition, radiolabeled [γ-33P] ATP (Reaction Biology Corp)
Assay type: biochemical
reported conditions: compound at 30uM; ATP 1 µM; Data 2; read-out: % Enzyme Activity (relative to DMSO controls) RET (G810S/M918T) Data 2
quantity name: remaining activity at 30 µM (%)

compound="CC(C)Nc1cc(Br)c2nccnc2c1 [Intermediate Compound 20, 8-Bromo-N-isopropylquin oxalin-6-amine]" quantity_name="remaining activity at 30 µM" measured=73.1

[I] O=[N+]([O-])c1cc(-c2ccc(N3CC(Oc4cccc(F)c4)C3)nc2)c2nccnc2c1 [Example 27]
[II] CCNc1cc(Br)c2nccnc2c1 [Intermediate Compound 18, 8-Bromo-N-ethylquinoxalin-6-amine]
[III] CCN(CC)c1cc(-c2ccc(N3CC(Oc4cccc(F)c4)C3)nc2)c2nccnc2c1 [Example 28]
**Q:** In this exercise, place the 3 compounds in ascending sequence of their recorded remaining activity at 30 µM. Put the labels in the requested order and list them out.
**A:** III, II, I

----------
system under test: RET (G810S/M918T) (Homo sapiens, UniProt P07949, G810S/M918T)
Construct: purchased Reaction Biology Corp
assay name: Kinase panel inhibition, radiolabeled [γ-33P] ATP (Reaction Biology Corp)
Format: biochemical
reported conditions: compound at 10 uM; ATP 1 µM; Data 2; read-out: % Enzyme Activity (relative to DMSO controls) RET (G810S/M918T) Data 2
quantity name: remaining activity at 10 µM (%)

Observe how each entry below is paired with its result.
molecular_string=CC(C)Nc1cc(-c2ccc(N3CC[C@H](NC(=O)c4ccccc4F)C3)nc2)c2nccnc2c1 measured=4.68
molecular_string=CNc1cc(-c2ccc(N3CC(Oc4cccc(F)c4)C3)nc2)c2nccnc2c1 measured=-0.43

[1] Nc1cc(-c2ccc(N3CCN(Cc4ccc(Br)cc4)CC3)nc2)c2nccnc2c1
[2] CCCCNc1cc(-c2ccc(N3CC[C@H](NC(=O)c4ccccc4F)C3)nc2)c2nccnc2c1
**Q:** Which gives the smaller remaining activity at 10 µM number: 1 or 2 ? Please identify the chosen entry by its label.
**A:** 2
(2: -0.2%, 1: 2.38%)

----------
system under test: RET (G810S/M918T) (Homo sapiens, UniProt P07949, G810S/M918T)
Construct: purchased Reaction Biology Corp
assay name: Kinase panel inhibition, radiolabeled [γ-33P] ATP (Reaction Biology Corp)
Type: biochemical
reported conditions: compound at 10 uM; ATP 1 µM; Data 2; read-out: % Enzyme Activity (relative to DMSO controls) RET (G810S/M918T) Data 2
quantity name: remaining activity at 10 µM (%)

compound="CCNc1cc(C#CCN2CCOCC2)c2nccnc2c1 [Example 31]" measured=61.2

[I] CCNc1cc(-c2ccc(N3CC[C@H](NC(=O)c4ccccc4F)C3)nc2)c2nccnc2c1 [Example 12]
[II] Nc1cc(-c2ccc(N3CCC(N4CCOCC4)CC3)nc2)c2nccnc2c1 [Example 25]
[III] CCS(=O)(=O)N1CCN(c2ccc(-c3cc(N)cc4nccnc34)cn2)CC1 [Example 22]
**Q:** Ascending by remaining activity at 10 µM, please. The response must list the labels following the requested ordering.
**A:** I, III, II

----------
system under test: RET-CCDC6 (PTC1) (Homo sapiens, UniProt P07949)
Construct: purchased Reaction Biology Corp
Sequence (P07949 whole entry, looked up): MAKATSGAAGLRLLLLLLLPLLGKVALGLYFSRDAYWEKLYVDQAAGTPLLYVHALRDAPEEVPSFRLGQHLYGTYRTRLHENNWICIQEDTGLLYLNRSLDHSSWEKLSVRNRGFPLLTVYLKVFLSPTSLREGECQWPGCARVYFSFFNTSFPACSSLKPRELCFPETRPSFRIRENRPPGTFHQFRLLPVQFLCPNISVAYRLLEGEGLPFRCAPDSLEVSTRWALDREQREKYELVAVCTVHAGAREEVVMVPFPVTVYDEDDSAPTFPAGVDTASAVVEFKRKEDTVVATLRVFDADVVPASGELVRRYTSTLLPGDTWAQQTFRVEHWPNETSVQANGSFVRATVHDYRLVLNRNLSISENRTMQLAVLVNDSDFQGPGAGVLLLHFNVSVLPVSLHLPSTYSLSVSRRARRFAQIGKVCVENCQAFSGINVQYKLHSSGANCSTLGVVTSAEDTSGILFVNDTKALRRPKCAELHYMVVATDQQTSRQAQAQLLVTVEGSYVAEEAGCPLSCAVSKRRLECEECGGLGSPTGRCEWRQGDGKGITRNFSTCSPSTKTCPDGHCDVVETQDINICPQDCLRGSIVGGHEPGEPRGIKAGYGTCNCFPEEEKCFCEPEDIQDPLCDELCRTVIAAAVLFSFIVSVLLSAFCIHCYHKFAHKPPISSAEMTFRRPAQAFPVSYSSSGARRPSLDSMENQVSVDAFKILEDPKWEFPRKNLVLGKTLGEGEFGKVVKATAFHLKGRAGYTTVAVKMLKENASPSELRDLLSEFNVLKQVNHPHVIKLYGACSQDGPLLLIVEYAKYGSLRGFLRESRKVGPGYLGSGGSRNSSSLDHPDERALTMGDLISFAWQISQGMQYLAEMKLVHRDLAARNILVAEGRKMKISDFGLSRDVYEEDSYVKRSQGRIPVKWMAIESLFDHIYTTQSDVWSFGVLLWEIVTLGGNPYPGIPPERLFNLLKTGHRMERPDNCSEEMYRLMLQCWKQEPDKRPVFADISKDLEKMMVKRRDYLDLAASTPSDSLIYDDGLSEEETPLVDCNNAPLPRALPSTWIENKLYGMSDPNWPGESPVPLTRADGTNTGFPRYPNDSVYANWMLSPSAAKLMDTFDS
assay name: Kinase panel inhibition, radiolabeled [γ-33P] ATP (Reaction Biology Corp)
Assay type: biochemical
reported conditions: compound at 10 uM; ATP 1 µM; Data 1; read-out: % Enzyme Activity (relative to DMSO controls) RET-CCDC6 (PTC1) Data 1
quantity name: remaining activity at 10 µM (%)

molecular_string=CNc1cc(-c2ccc(N3CC(Oc4cccc(F)c4)C3)nc2)c2nccnc2c1 result_units=% measured=1.38
molecular_string=O=C(Nc1cc(-c2ccc(N3CC(Oc4cccc(F)c4)C3)nc2)c2nccnc2c1)c1ccccn1 result_units=% measured=2.81
molecular_string=CN1CCN(c2ccc(-c3cc(N)cc4nccnc34)cn2)CC1 result_units=% measured=12.9

[P] Nc1cc(-c2ccc(N3CCN(c4ccccn4)CC3)nc2)c2nccnc2c1
[Q] CCNc1cc(-c2ccc(N3CCN(Cc4ccc(Br)cc4)CC3)nc2)c2nccnc2c1
**Q:** Compare the recorded remaining activity at 10 µM of P and Q ; state which is larger. Answer with the label corresponding to your selection.
**A:** P
(P: 1.92%, Q: 0.94%)

----------
system under test: RET-CCDC6 (PTC1) (Homo sapiens, UniProt P07949)
Construct: purchased Reaction Biology Corp
assay name: Kinase panel inhibition, radiolabeled [γ-33P] ATP (Reaction Biology Corp)
Assay type: biochemical
reported conditions: compound at 10 uM; ATP 1 µM; Data 2; read-out: % Enzyme Activity (relative to DMSO controls) RET-CCDC6 (PTC1) Data 2
quantity name: remaining activity at 10 µM (%)

molecule="CNc1cc(-c2ccc(N3CC(Oc4cccc(F)c4)C3)nc2)c2nccnc2c1 [Example 2]" measured=0.23
molecule="Nc1cc(-c2ccc(N3CCC(N4CCOCC4)CC3)nc2)c2nccnc2c1 [Example 25]" measured=20.4

[P] Nc1cc(-c2cnc(N3CC[C@H](NC(=O)c4ccccc4F)C3)nc2)c2nccnc2c1 [Example 30]
[Q] O=C(Nc1cc(-c2ccc(N3CC(Oc4cccc(F)c4)C3)nc2)c2nccnc2c1)c1ccco1 [Example 8]
**Q:** I would appreciate it if you could say which entry, P or Q , has the lower remaining activity at 10 µM value. Return value: the label identifying the chosen record.
**A:** P
(P: 1.2%, Q: 1.8%)

----------
system under test: RET(V804M) (Homo sapiens, UniProt P07949, V804M)
Construct: purchased Reaction Biology Corp
Sequence (P07949 29-1114 V804M): as the sequence (P07949 29-1114 G810S/M918T) above, with V776M, S782G, T890M counted along it
assay name: Kinase panel inhibition, radiolabeled [γ-33P] ATP (Reaction Biology Corp)
Format: biochemical
reported conditions: compound at 1 uM; ATP 10 µM; read-out: % Enzyme Activity (relative to DMSO controls) V804M
quantity name: remaining activity at 1 µM (%)

[A] O=C(Nc1cc(Br)c2nccnc2c1)c1ccco1 [Intermediate Compound 11]
[B] CCN(CC)c1cc(-c2ccc(N3CC(Oc4cccc(F)c4)C3)nc2)c2nccnc2c1
**Q:** Consider entries A and B . Which has the numerically lower remaining activity at 1 µM? Write the label of whichever entry you select.
**A:** B

----------
system under test: RET(G810R) (Homo sapiens, UniProt P07949, G810R)
Construct: purchased Reaction Biology Corp
Sequence (P07949 29-1114 G810R): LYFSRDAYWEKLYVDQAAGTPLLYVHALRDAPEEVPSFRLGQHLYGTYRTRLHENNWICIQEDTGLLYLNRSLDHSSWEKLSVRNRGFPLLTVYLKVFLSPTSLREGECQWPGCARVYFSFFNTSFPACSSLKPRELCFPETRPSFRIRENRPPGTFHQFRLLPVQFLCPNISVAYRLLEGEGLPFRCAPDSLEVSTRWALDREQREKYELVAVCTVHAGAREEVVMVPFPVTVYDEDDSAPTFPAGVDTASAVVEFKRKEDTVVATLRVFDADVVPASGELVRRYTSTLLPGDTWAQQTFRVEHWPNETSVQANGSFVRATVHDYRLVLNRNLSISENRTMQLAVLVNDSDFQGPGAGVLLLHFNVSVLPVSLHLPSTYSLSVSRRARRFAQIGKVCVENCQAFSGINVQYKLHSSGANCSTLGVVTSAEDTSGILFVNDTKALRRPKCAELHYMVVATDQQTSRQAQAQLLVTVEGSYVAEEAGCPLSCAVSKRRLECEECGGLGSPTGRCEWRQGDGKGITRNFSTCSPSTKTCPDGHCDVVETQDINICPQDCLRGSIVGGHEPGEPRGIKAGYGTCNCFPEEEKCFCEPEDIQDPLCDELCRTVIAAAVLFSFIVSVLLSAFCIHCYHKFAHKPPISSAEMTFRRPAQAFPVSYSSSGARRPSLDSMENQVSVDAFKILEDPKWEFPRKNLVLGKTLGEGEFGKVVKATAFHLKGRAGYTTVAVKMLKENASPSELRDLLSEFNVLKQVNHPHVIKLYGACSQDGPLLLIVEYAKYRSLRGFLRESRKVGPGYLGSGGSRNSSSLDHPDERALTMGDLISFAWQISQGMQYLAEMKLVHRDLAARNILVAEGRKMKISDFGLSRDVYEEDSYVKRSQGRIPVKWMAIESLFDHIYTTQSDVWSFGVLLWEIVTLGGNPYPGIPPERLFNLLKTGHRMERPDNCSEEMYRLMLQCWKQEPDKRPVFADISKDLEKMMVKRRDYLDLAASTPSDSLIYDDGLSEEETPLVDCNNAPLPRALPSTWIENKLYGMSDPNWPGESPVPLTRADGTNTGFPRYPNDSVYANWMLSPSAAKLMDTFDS
assay name: Kinase panel inhibition, radiolabeled [γ-33P] ATP (Reaction Biology Corp)
Assay type: biochemical
reported conditions: compound at 0.1 uM; ATP 10 µM; read-out: % Enzyme Activity (relative to DMSO controls) G810R
quantity name: remaining activity at 0.1 µM (%)

Would you please look over these solved cases?
compound="Nc1cc(-c2cnc(N3CC(Oc4cccc(F)c4)C3)nc2)c2nccnc2c1 [Example 29]" result_units=% measured=76.3
compound="Nc1cc(-c2ccc(N3CC[C@H](NC(=O)c4ccccc4F)C3)nc2)c2nccnc2c1 [Example 10]" result_units=% measured=59.9

[P] O=C(Nc1cc(-c2ccc(N3CC(Oc4cccc(F)c4)C3)nc2)c2nccnc2c1)c1ccco1 [Example 8]
[Q] CNc1cc(-c2ccc(N3CC[C@H](NC(=O)c4ccccc4F)C3)nc2)c2nccnc2c1 [Example 11]
**Q:** Between the entries labelled P and Q , which has a larger remaining activity at 0.1 µM value on record? Identify your selection by its label.
**A:** P

[P] CCNc1cc(-c2ccc(N3CC[C@H](NC(=O)c4ccccc4F)C3)nc2)c2nccnc2c1 [Example 12]
[Q] CCNc1cc(Nc2cc(C)[nH]n2)c2nccnc2c1 [Example 32]
**Q:** Please compare: P and Q . Report which one has the smaller remaining activity at 0.1 µM value. Please identify the chosen entry by its label.
**A:** P
